- target under test: human-KAT6A (MYST domain 507-778 aa) (Homo sapiens (Human))
- Sequence (Q92794 507-778): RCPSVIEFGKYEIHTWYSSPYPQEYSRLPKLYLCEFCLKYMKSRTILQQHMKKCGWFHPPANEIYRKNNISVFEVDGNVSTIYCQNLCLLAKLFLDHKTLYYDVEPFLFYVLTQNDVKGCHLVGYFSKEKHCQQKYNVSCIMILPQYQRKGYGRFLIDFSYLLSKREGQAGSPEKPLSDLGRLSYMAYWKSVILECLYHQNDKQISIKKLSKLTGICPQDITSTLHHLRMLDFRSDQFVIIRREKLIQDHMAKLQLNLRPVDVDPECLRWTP
- method notes: KAT6A biochemical assay (TR-FRET)
- run conditions: TR-FRET; histone H4 peptide 200 nM, acetyl-CoA 600 nM; read-out: KAT6A IC50
// values below are reported pIC50
API: returns pIC50 as number; meaning -log10 of concentration in mol/L.

Here's what some known entries look like.
| compound | pIC50 |
| --- | --- |
| COc1ccc(C(C)(C)C)cc1S(=O)(=O)NC(=O)c1ccc(Cn2cccn2)c(C2CC2)c1 | 7.70 |
| CCC(C)(O)c1ccc(OC)c(S(=O)(=O)NC(=O)c2ccc(Cn3cccn3)c(OC)n2)c1 (centres unmarked) | 7.92 |
| COc1cccc(OC)c1S(=O)(=O)NC(=O)c1ccc(Cn2cccn2)c(C2CC2)n1 | 7.89 |
| CCc1ccc(OC)c(S(=O)(=O)NC(=O)c2ccc(Cn3cccn3)c(OC)c2)c1 | 7.96 |
| COc1cc(C(=O)NS(=O)(=O)c2c(OC)ccc3c2CCCC3)ccc1Cn1cccn1 | 7.96 |
| COc1cccc(OC)c1S(=O)(=O)NC(=O)c1ccc(Cn2cccn2)c(F)c1 | 7.32 |
| COc1cc(C(=O)N[S@](=N)(=O)c2c(OC)ccc(C)c2OC)ccc1Cn1cccn1 [Compound 304b] | 6.89 |

Proceeding to the next compound to report its pIC50.
Recorded result, COc1ccc(C)cc1S(=O)(=O)NC(=O)c1ccc(Cn2cccn2)c(OC)n1 , pIC50: 7.92
